- Test system: human TAS2R4 (Homo sapiens)
- Construct: expressed in transfected cells; host or cells: HEK293T-Gα16gust44
- Sequence (Q9NYW5 1-299): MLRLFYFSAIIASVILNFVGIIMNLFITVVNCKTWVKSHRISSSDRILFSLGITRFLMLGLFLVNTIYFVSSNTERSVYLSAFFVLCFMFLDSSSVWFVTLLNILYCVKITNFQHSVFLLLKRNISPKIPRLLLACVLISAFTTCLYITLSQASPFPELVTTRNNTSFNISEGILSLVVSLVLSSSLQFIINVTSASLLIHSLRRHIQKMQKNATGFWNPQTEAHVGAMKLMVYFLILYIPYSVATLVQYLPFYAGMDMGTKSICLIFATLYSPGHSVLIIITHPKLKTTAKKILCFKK
- Procedure text: Calcium imaging assay (FLIPR), HEK293T-Gα16gust44 cells transfected with human TAS2R4; also: test concentration or dose not given here
- Format: cell-based
- Run conditions: Time (s) 114.781 (TCA, TLCA: 114.782)
- Procedure: This set of bile acids was chosen because of their commercial availability in high purities, their diversity within the class of bile acids and their previous detection and quantitation in human blood. Stock solutions were prepared in DMSO. […] Measured data were negative control corrected by subtracting the signal of the mock-transfected cells and exported to Microsoft Excel using the FLIPR software ScreenWorks 4.2. […]
Under this convention, satisfied denotes RLU, fluorescence trace strictly below 300 RLU and not satisfied denotes RLU, fluorescence trace at or above 300 RLU.

Compound	Assigned category
C[C@H](CCC(=O)O)[C@H]1CC[C@H]2[C@@H]3CC[C@@H]4C[C@H](O)CC[C@]4(C)[C@H]3C[C@H](O)[C@]12C [Deoxycholic Acid, deoxycholic acid]	not satisfied
C[C@H](CCC(=O)O)[C@H]1CC[C@H]2[C@@H]3[C@H](O)C[C@@H]4C[C@H](O)CC[C@]4(C)[C@H]3C[C@H](O)[C@]12C [Cholic Acid, cholic acid]	not satisfied
C[C@H](CCC(=O)NCC(=O)O)[C@H]1CC[C@H]2[C@@H]3[C@H](O)C[C@@H]4C[C@H](O)CC[C@]4(C)[C@H]3C[C@H](O)[C@]12C [Glycocholic Acid, glycocholic acid]	not satisfied
C[C@H](CCC(=O)NCCS(=O)(=O)O)[C@H]1CC[C@H]2[C@@H]3[C@H](O)C[C@@H]4C[C@H](O)CC[C@]4(C)[C@H]3C[C@H](O)[C@]12C [Taurocholic Acid, taurocholic acid]	not satisfied
C[C@H](CCC(=O)NCCS(=O)(=O)O)[C@H]1CC[C@H]2[C@@H]3CC[C@@H]4C[C@H](O)CC[C@]4(C)[C@H]3CC[C@]12C [Taurolithocholic Acid, taurolithocholic acid]	satisfied
C[C@H](CCC(=O)O)[C@H]1CC[C@H]2[C@@H]3[C@@H](O)C[C@@H]4C[C@H](O)CC[C@]4(C)[C@H]3CC[C@]12C [Ursodeoxycholic Acid, ursodeoxycholic acid]	satisfied
